target_entity: Serine/threonine-protein kinase PAK 1 (Homo sapiens)
Sequence (Q13153 whole entry, the tested form may be a part): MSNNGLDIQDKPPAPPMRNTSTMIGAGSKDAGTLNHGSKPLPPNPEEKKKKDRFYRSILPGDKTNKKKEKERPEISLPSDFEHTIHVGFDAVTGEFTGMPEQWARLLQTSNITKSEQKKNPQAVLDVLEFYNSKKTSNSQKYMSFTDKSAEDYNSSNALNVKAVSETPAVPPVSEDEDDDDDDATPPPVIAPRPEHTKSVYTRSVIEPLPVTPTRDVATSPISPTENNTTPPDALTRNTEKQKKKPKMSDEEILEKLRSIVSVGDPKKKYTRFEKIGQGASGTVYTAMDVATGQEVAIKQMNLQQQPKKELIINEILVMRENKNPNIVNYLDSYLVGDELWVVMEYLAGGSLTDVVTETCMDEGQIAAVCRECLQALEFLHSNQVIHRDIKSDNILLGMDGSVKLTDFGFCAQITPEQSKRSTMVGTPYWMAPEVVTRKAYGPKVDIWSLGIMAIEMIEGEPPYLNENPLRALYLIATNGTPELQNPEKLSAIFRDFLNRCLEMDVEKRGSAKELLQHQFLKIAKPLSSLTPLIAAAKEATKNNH
assay_method_text: Inhibition of human recombinant N-terminal 6-His-tagged PAK1 kinase domain (249 to 545 residues) expressed in Escherichia coli BL21(DE3) assessed as phosphorylation of coumarin labeled FRET peptide substrate at Ser/Thr19 preincubated for 10 mins followed by ATP addition measured after 60 mins by Z'-LYTE assay
measured_parameter: Ki (µM)

Take a look at these entries with their results.
{"compound": "CNc1ncc2cc(-c3ccc(-n4ccc(C)cc4=O)cc3Cl)c(=O)n(C[C@H]3CNCCO3)c2n1", "target_entity": "Serine/threonine-protein kinase PAK 1 (Homo sapiens)", "measured_parameter": "Ki", "experimental_value": 0.943}
{"compound": "CNc1ncc2cc(-c3ccc(-n4cccc(C)c4=O)cc3Cl)c(=O)n(CCOC3CN(C)C3)c2n1", "target_entity": "Serine/threonine-protein kinase PAK 1 (Homo sapiens)", "measured_parameter": "Ki", "experimental_value": 0.0044}

[I] CNc1ncc2cc(-c3ccc(-n4cccc(C)c4=O)cc3Cl)c(=O)n(CCO)c2n1
[II] Cc1nccn(-c2ccc(-c3cc4cnc(NC5COC5)nc4n(CC4CCNCC4(F)F)c3=O)c(Cl)c2)c1=O (single isomer, unassigned)
## Input Identify the item whose Ki is the smaller number: I or II Refer to your chosen item by its label in the answer.
## Output II

----------
target_entity: Serine/threonine-protein kinase PAK 1 (Homo sapiens)
assay_method_text: Inhibition of human recombinant N-terminal 6-His-tagged PAK1 kinase domain (249 to 545 residues) expressed in Escherichia coli BL21(DE3) assessed as phosphorylation of coumarin labeled FRET peptide substrate at Ser/Thr19 preincubated for 10 mins followed by ATP addition measured after 60 mins by Z'-LYTE assay
pKi: −log10 of the molar value.
measured_parameter: pKi

{"smiles_notation": "CNc1ncc2cc(-c3ccc(-n4cccc(C)c4=O)cc3Cl)c(=O)n(CCCN)c2n1", "pKi": 8.46}

[A] CNc1ncc2cc(-c3ccc(-n4cccc(C)c4=O)cc3C3CC3)c(=O)n(C[C@@H]3CNCCO3)c2n1
[B] CNc1ncc2cc(-c3ccc(-c4cccc(C)n4)cc3Cl)c(=O)n(CCCN)c2n1
[C] CCc1cccn(-c2ccc(-c3cc4cnc(NC)nc4n(C[C@H]4CNCCO4)c3=O)c(Cl)c2)c1=O
[D] CNc1ncc2cc(-c3ccc(-n4ccccc4=O)cc3Cl)c(=O)n(CCCN)c2n1
## Input Sequence the entries by pKi, beginning with the highest number. Respond with an ordered listing of the labels, as requested.
## Output B, C, D, A

[I] CNc1ncc2cc(-c3ccc(-n4cccc(C)c4=O)cc3Cl)c(=O)n(CC(F)(F)CN)c2n1
[II] CNc1ncc2cc(-c3ccccc3Cl)c(=O)n(CCCN)c2n1
## Input Identify the item whose pKi is the smaller number: I or II Refer to your chosen item by its label in the answer.
## Output II
(II: 6.42, I: 8.05)

----------
assay_method_text: Cmax associated with acute adverse effect in mouse at 60 to 80 mg/kg, po
Assay type: ADME, organism-based
condition_details: in vivo
measured_parameter: Cmax (µM)
// note: answer is a bare numeric in µM

Entry CCn1c(=O)c(-c2ccc(-c3cncc(C)n3)cc2Cl)cc2cnc(NCCC3CCN(C)CC3)nc21 ; Cmax = 16

----------
assay_method_text: Cmax associated with acute adverse effect in mouse at 12.5 to 25 mg/kg, po
Type: ADME, organism-based
condition_details: in vivo
measured_parameter: Cmax (nM)
// note: answer is a bare numeric in nM

Entry CNc1ncc2cc(-c3ccc(-n4cccc(C)c4=O)cc3Cl)c(=O)n(CCC3(F)CN(C)C3)c2n1 ; Cmax = 2800
